Biological target: CDK4/Cyclin-D1 kinase complex (Homo sapiens, UniProt P11802)
Assay: CDK4 ELISA based assay, Rb Ser780 phosphorylation
Format: biochemical
Settings: Table E; read-out: CDK4 ELISA assay IC50 [umol l−]
Measurement Kind: IC50

Look over these answered cases.
{"columns": ["Item Smiles", "IC50"],
 "data": [
  ["CCC(CC)n1cc(C(=O)OC)c2cnc(Nc3ccc(N4CCNCC4)cc3)nc21", "> 10 µM"],
  ["CCC(CC)n1cc(C)c2cnc(Nc3ccc(N4CCN(C)CC4)cc3)nc21", "> 10 µM"]
]}

Query molecule follows.
Please look up its IC50: CCC(CC)n1c(C(=O)O)cc2cnc(Nc3ccc(N4CCNCC4)cc3)nc21
< 1 µM

* * *

Biological target: CDK2/Cyclin-A kinase complex (Homo sapiens, UniProt P24941)
Experiment: CDK2 IMAP fluorescence polarization assay
Assay type: biochemical
Conditions: Table E; read-out: CDK2cyA IMAP/IC50 [umol l − 1]
pIC50: −log10 of the molar value.
Measurement Kind: pIC50

Recorded pIC50, per entry:
{"columns": ["Compound", "Measurement Kind", "Reported Measurement"],
 "data": [
  ["CCC(CC)n1c(CO)cc2cnc(Nc3ccc(N4CCN(C(C)=O)CC4)cc3)nc21", "pIC50", "> 6.00"],
  ["CCC(CC)n1ccc2cnc(Nc3cccc(OCCn4ccnc4)c3)nc21", "pIC50", "> 6.00"],
  ["COC(=O)c1c(C)c2cnc(Nc3ccc(N4CCNCC4)cn3)nc2n1C1CCCC1", "pIC50", "< 5.00"]
]}

Name the reported pIC50 value associated with the compound Cc1cn(C2CCCC2)c2nc(Nc3ccc(CN4CCOCC4)cc3)ncc12
> 5.00

Entry Clc1cn(C2CCCC2)c2nc(Nc3ccc(N4CCNCC4)cn3)ncc12 : reported pIC50 = ?
< 5.00

Requested field: pIC50. Item: COC(=O)c1c(C)n(C2CCCC2)c2nc(Nc3ccc(N4CCNCC4)cn3)ncc12
< 5.00

Looking for the measured pIC50 of CCC(CC)n1c(C)cc2cnc(Nc3ccc(N4CCNCC4)cc3)nc21 , can you help?
> 6.00

* * *

Biological target: hCDK1/B (Homo sapiens)
Assay: hCDK1/B assay
Conditions: Table E; read-out: hCDK1/B/IC50 [umol l − 1]
pIC50: −log10 of the molar value.
Parameter: pIC50. Scope: all listed entries.

See these solved cases before continuing.
{"columns": ["Item Smiles", "pIC50"],
 "data": [
  ["Cc1cn(C2CCCC2)c2nc(Nc3ccc(C(=O)N4CCOCC4)cc3)ncc12", "> 5.00"],
  ["CCC(CC)n1c(C(=O)Nc2ccccn2)cc2cnc(Nc3ccc(N4CCNCC4)cc3)nc21", "> 5.00"]
]}

Return reported pIC50; argument: CN(C)C(=O)c1cc2cnc(Nc3ccc(CN4CCNCC4)cc3)nc2n1C1CCCC1
< 5.00

// returns reported pIC50 for input CN(C)C(=O)c1cc2cnc(Nc3ccc(N4CCNCC4)cc3)nc2n1C1CCCC1
> 5.00

I am curious: what pIC50 value has been reported for CCC(CC)n1c(C(=O)Nc2ccc(CN3CCN(C)CC3)cc2)cc2cnc(Nc3ccc(N4CCNCC4)cc3)nc21 ?
< 4.82

What measured pIC50 goes with Cc1cn(C2CCCC2)c2nc(Nc3ccc(CN4CCNCC4)cc3)ncc12 ?
> 5.00

* * *

Target: JAK-3 (Homo sapiens)
Construct: GST fusion constructs of the kinase domains of both enzymes are used; GST
Assay: JAK LANCE enzymatic assay (JAK-3)
Format: biochemical
Conditions: Table A; read-out: Jak-3/ IC50
# Lookup of reported IC50 keyed by entry

Known results for compounds:
{"columns": ["Compound", "IC50"],
 "data": [
  ["O=C1Cc2cnc(Nc3ccc(C(=O)N4CCOCC4)cc3)nc2N1", "≥ 100 nM"],
  ["COc1ccc(C(=O)N2CCN(C)CC2)cc1Nc1ncc2c(n1)NC(=O)C2 [drawing 18]", "≥ 100 nM"],
  ["CCC(CC)N1C(=O)Cc2cnc(Nc3ccc(NC(=O)c4cccnc4)cc3)nc21", "≥ 100 nM"]
]}

Entry CCC(c1ccccc1)N1C(=O)Cc2cnc(Nc3cccc(OCCn4ccnc4)c3)nc21 (centres unmarked) : reported IC50 = ?
≥ 100 nM

Give its IC50 value. Item: CCC(CC)N1C(=O)Cc2cnc(Nc3ccc(C(=O)N(C)C)cc3)nc21
≥ 100 nM

Which IC50 value belongs to O=C1Cc2cnc(Nc3ccc(N4CCOCC4)cc3)nc2N1C1CC1 ?
≥ 100 nM

* * *

Overview of reported pIC50 across a group of compounds:
Target: CDK4 (Homo sapiens, UniProt P11802)
Sequence (P11802 whole entry): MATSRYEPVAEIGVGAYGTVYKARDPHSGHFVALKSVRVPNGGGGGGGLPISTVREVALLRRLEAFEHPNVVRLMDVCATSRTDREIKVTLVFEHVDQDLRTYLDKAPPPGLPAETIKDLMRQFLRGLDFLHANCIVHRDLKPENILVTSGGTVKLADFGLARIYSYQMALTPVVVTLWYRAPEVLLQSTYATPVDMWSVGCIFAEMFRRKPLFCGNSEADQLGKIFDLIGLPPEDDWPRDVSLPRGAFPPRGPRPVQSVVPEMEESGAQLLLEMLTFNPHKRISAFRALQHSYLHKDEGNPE
Sequence (P24385 whole entry partner): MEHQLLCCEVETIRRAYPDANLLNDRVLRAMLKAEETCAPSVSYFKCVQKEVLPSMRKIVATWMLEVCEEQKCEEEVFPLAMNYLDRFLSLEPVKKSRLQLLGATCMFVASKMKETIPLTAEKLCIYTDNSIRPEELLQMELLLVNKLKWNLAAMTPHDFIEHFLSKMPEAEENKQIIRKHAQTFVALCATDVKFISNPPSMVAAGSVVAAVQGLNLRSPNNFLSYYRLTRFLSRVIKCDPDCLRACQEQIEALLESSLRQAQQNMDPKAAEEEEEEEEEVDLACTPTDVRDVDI
Assay: CDK4 HTRF assay
Type: biochemical
Conditions: Table E; read-out: CDK4 HTRF/IC50 [umol l − 1]
pIC50: −log10 of the molar value.

Study these solved cases before continuing.
{"columns": ["Compound", "Study System", "pIC50"],
 "data": [
  ["CC(=O)N1CCN(c2ccc(Nc3ncc4c(C)cn(C5CC5)c4n3)cc2)CC1", "CDK4 (Homo sapiens, UniProt P11802)", "< 5.00"],
  ["COc1ccccc1Nc1ncc2c(C)cn(C3CCCC3)c2n1", "CDK4 (Homo sapiens, UniProt P11802)", 5.00]
]}

Please provide the recorded pIC50 for CCC(CC)n1c(C(C)OC)cc2cnc(Nc3ccc(N4CCNCC4)cc3)nc21 (stereo not drawn) , tested on CDK4 (Homo sapiens, UniProt P11802).
> 6.00

* * *

Molecular target: hCDK1/B (Homo sapiens, UniProt P06493)
Sequence (P06493 whole entry): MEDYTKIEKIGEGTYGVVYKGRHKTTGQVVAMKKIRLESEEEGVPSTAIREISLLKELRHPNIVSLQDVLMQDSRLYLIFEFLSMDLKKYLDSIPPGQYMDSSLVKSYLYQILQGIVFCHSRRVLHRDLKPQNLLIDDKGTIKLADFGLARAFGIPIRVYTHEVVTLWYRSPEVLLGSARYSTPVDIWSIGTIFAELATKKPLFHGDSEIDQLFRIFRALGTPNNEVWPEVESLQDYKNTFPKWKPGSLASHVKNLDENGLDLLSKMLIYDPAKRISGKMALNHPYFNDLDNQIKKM
Sequence (P14635 whole entry partner): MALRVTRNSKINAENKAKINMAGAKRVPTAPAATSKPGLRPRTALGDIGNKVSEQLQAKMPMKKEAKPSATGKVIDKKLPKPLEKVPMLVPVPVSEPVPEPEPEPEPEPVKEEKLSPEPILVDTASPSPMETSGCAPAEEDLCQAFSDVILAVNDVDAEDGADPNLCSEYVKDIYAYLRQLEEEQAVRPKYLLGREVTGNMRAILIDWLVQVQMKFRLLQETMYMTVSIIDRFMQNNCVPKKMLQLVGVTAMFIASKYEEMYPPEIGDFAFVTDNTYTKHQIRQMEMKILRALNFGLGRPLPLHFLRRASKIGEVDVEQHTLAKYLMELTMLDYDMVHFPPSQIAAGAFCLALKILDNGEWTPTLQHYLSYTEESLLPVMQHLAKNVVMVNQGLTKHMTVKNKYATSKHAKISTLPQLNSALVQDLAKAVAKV
Assay: hCDK1/B assay
Type: biochemical
Conditions: Table E; read-out: hCDK1/B/IC50 [umol l − 1]
pIC50: −log10 of the molar value.
Measurement Kind: pIC50

Use the examples below as a reference point.
{"columns": ["Molecule", "Study System", "Reported Measurement"],
 "data": [
  ["CCC(CC)n1c(CNc2cc(C)[nH]n2)cc2cnc(Nc3ccc(N4CCN(C(C)=O)CC4)cc3)nc21", "hCDK1/B (Homo sapiens, UniProt P06493)", "> 5.00"],
  ["CCC(CC)n1c(CNc2ccon2)cc2cnc(Nc3ccc(N4CCN(C(C)=O)CC4)cc3)nc21", "hCDK1/B (Homo sapiens, UniProt P06493)", "> 6.00"],
  ["Cc1c(-c2cnco2)n(C2CCCC2)c2nc(Nc3ccc(CN4CCNCC4)cc3)ncc12", "hCDK1/B (Homo sapiens, UniProt P06493)", "> 6.00"],
  ["Cc1cn(C2CCCC2)c2nc(Nc3ccc(CN4CCN(C(=O)OC(C)(C)C)CC4)cc3)ncc12", "hCDK1/B (Homo sapiens, UniProt P06493)", "< 4.82"],
  ["OC1CCC(n2ccc3cnc(Nc4ccc(N5CCNCC5)cc4)nc32)C1 (stereo not shown)", "hCDK1/B (Homo sapiens, UniProt P06493)", "> 6.00"],
  ["CCC(CC)n1c(C(=O)Nc2ccc(C)cc2)cc2cnc(Nc3ccc(N4CCNCC4)cc3)nc21", "hCDK1/B (Homo sapiens, UniProt P06493)", "< 4.82"]
]}

Turning to the following molecule.
// lookup pIC50 for Cc1cn(C2CCCC2)c2nc(Nc3ccc(N4CCOCC4)cc3)ncc12
> 5.00

* * *

Target: CDK2/Cyclin-A kinase complex (Homo sapiens, UniProt P24941)
Test: CDK2 IMAP fluorescence polarization assay
Format: biochemical
Conditions: Table E; read-out: CDK2cyA IMAP/IC50 [umol l − 1]
List of IC50 values.

{"columns": ["Compound", "IC50"],
 "data": [
  ["COc1ccccc1Nc1ncc2c(C)cn(C3CCCC3)c2n1", "> 10 µM"]
]}

Need IC50 of Cc1cn(C2CCC(O)C2)c2nc(Nc3ccc(CN4CCOCC4)cc3)ncc12 (stereo not drawn) , thanks.
< 1 µM

What IC50 value was documented for this compound, CCC(CC)n1c(CNCCc2cc3ccccc3[nH]2)cc2cnc(Nc3ccc(N4CCN(C(C)=O)CC4)cc3)nc21 ?
< 1 µM

# input compound: COc1cccc(Nc2ncc3c(C)cn(C4CCCC4)c3n2)c1 ; wanted: its IC50
< 10 µM

* * *

Biological target: JAK-3 (Homo sapiens, UniProt P52333)
Construct: GST fusion constructs of the kinase domains of both enzymes are used; GST
Sequence (P52333 822-1111 limits assumed): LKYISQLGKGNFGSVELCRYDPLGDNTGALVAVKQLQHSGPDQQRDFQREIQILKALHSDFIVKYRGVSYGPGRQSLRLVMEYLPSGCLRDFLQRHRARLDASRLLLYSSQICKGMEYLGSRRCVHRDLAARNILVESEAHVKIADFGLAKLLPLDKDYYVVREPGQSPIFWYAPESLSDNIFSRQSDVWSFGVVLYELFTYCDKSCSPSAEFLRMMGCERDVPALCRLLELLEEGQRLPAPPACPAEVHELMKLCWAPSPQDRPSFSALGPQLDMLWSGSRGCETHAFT
Assay: JAK LANCE enzymatic assay (JAK-3)
Type: biochemical
Conditions: Table A; read-out: Jak-3/ IC50
Source text: Binding of cytokines and certain growth factors to their respective receptors trigger activation of Janus kinases, which phosphorylate members of the STAT family. […] Phosphorylation of this peptide by the respective kinase is quantified with an europium-labeled anti-phosphotyrosine antibody (Eu-PT66) as energy donor and a streptavidin-allophycocyanine conjugate (SA-APC) as energy acceptor. […]
Listing: IC50 of selected compounds

Some compounds with recorded IC50:
{"columns": ["Compound", "IC50"],
 "data": [
  ["CCC(CC)N1C(=O)Cc2cnc(Nc3ccc(N4CCN(C)CC4)cc3)nc21", "≤ 100 nM"],
  ["CCC(CC)N1C(=O)Cc2cnc(Nc3ccc(C(=O)NC)cc3)nc21", "≥ 100 nM"],
  ["CCC(CC)n1cnc2cnc(Nc3ccc(N4CCN(C(C)=O)CC4)cc3)nc21", "≥ 100 nM"],
  ["CCNC(=O)c1ccc(Nc2ncc3c(n2)N(C(CC)CC)C(=O)C3)cc1", "≤ 100 nM"],
  ["CCC(CC)n1c(=O)[nH]c2cnc(Nc3ccc(N4CCN(C(C)=O)CC4)cc3)nc21", "≥ 100 nM"],
  ["CCC(CC)N1C(=O)Cc2cnc(Nc3cccc(NC(=O)c4ccncc4)c3)nc21", "≤ 100 nM"]
]}

Identify the measured IC50 of CCC(CC)N1C(=O)Cc2cnc(Nc3cccc(C(=O)N4CCN(C)CC4)c3)nc21 for JAK-3 (Homo sapiens, UniProt P52333).
≥ 100 nM

Could you share what IC50 was measured for CCC(CC)N1C(=O)Cc2cnc(Nc3ccc(N4CCC(N5CCN(C)CC5)CC4)cc3)nc21 , tested on JAK-3 (Homo sapiens, UniProt P52333)?
≤ 100 nM

Hello, I am looking for reported IC50 with JAK-3 (Homo sapiens, UniProt P52333) for CCC(CC)N1C(=O)Cc2cnc(Nc3ccc(C(=O)NCCN4CCCCC4)cc3)nc21 . Could you help?
≥ 100 nM

Could you share what IC50 was measured for CN1CCN(c2ccc(Nc3ncc4c(n3)N(C3CCCC3)C(=O)C4)cc2)CC1 , tested on JAK-3 (Homo sapiens, UniProt P52333)?
≥ 100 nM

API: value(readout= IC50, system= JAK-3 (Homo sapiens, UniProt P52333), query= CCC(CC)N1C(=O)Cc2cnc(Nc3cccc(C(=O)N4CCOCC4)c3)nc21 )
≥ 100 nM

Short answer please: IC50, JAK-3 (Homo sapiens, UniProt P52333), entry CCC(CC)N1C(=O)Cc2cnc(Nc3cccc(N(C)CCN4CCCC4)c3)nc21
≥ 100 nM

Give recorded IC50 with JAK-3 (Homo sapiens, UniProt P52333) for the following compound: CCC(CC)N1C(=O)Cc2cnc(Nc3ccc(C(=O)NC(C)(C)C)cc3)nc21
≥ 100 nM
